Exercise: state measured insulin secretion stimulation for each of the compounds provided.
- Measurement Notes: stimulators of insulin release from INS-1E, primary screen, cell-based, 5 mM glucose, NPC library (AID 1117329); further: reference of the scale not given here
- Measurement Context: rat INS-1E insulin secretion, at 10 µM, stronger effect = higher value
Please state the figure in %; there is no need to write the unit.

Could you share which insulin secretion stimulation value was measured for O=C(O)c1cn(C2CC2)c2cc(Cl)c(F)cc2c1=O ?
2.05

Could you share which insulin secretion stimulation value was measured for O=C(O)c1cc(O)c2c(c1)[O][Bi][O]2 ?
-0.6

Could you share which insulin secretion stimulation value was measured for O=C(O)c1ccccc1NCCc1ccccc1 ?
0.15

Could you share which insulin secretion stimulation value was measured for CCCc1cc(=O)[nH]c(=S)[nH]1 ?
-0.9

Could you share which insulin secretion stimulation value was measured for CC(=O)SCC(CC(=O)c1ccc(C)cc1)C(=O)O (stereo unspecified) ?
2.9

Could you share which insulin secretion stimulation value was measured for CCCCN(CCCC)C(C(N)=O)c1ccc(OC)cc1 (stereo unspecified) ?
36.4

Could you share which insulin secretion stimulation value was measured for C#C[C@]1(O)CC[C@@H]2[C@@H]3CCC4=CCCC[C@@H]4[C@H]3C(=C)C[C@@]21CC ?
-1.9

Could you share which insulin secretion stimulation value was measured for CN(C)CCOc1ccccc1Cc1ccccc1 ?
22

Could you share which insulin secretion stimulation value was measured for COc1ccc([C@@H]2CC(=O)c3c(O)cc(O[C@@H]4O[C@H](CO[C@@H]5O[C@@H](C)[C@H](O)[C@@H](O)[C@@H]5O)[C@@H](O)[C@H](O)[C@@H]4O)cc3O2)cc1O ?
-0.9

Could you share which insulin secretion stimulation value was measured for O=C1N=C(O)CN1/N=C/c1ccc(-c2ccc([N+](=O)[O-])cc2)o1 ?
2.6

Could you share which insulin secretion stimulation value was measured for NS(=O)(=O)c1cc2c(cc1C(F)(F)F)NC(Cc1ccccc1)NS2(=O)=O (stereo unspecified) ?
0.8

###

Exercise: state measured viability decrease for each of the compounds provided.
- Measurement Notes: growth inhibition of GSK3B-pretreated HCT116 cells – cell-based, CellTiter-Glo, 0.2 to 20 µM (AID 1117336)
- Measurement Context: HCT116 viability after GSK3B inhibitor, at 20 µM, stronger effect = higher value
Please state the figure in %; there is no need to write the unit.

Could you share which viability decrease value was measured for CCC(C)(C)C(=O)O[C@H]1C[C@@H](C)C=C2C=C[C@H](C)[C@H](CC[C@@H]3C[C@@H](O)CC(=O)O3)[C@H]21 ?
95.1

Could you share which viability decrease value was measured for CCOC(CN1CCN(CC(C)C(=O)c2ccccc2)CC1)c1ccccc1 (stereo not given) ?
-4.9

Could you share which viability decrease value was measured for CN1CCN(CCC(=O)N2c3ccccc3Sc3ccc(C(F)(F)F)cc32)CC1 ?
72.7

Could you share which viability decrease value was measured for CN[C@@H]1[C@H](O)[C@H](NC)[C@H]2O[C@@]3(O)C(=O)C[C@@H](C)O[C@H]3O[C@@H]2[C@H]1O ?
12.5

Could you share which viability decrease value was measured for CC(COc1ccccc1)NC(C)C(O)c1ccc(O)cc1 (stereo not given) ?
-3.4

Could you share which viability decrease value was measured for O=C(O)CNC(=O)c1ccccc1 ?
-9.35

Could you share which viability decrease value was measured for Oc1ccc(CCNCCCCCCNCCc2ccccc2)cc1O ?
83.3

Could you share which viability decrease value was measured for CC1(C)O[C@@H]2[C@@H](CO[C@@]3(COS(N)(=O)=O)OC(C)(C)O[C@@H]23)O1 ?
-4.2

Could you share which viability decrease value was measured for NC(=O)NS(=O)(=O)c1ccc(Cl)cc1 ?
-3.8

Could you share which viability decrease value was measured for CCC(C(=O)O)c1ccc(N2Cc3ccccc3C2=O)cc1 (stereo not given) ?
15.4
